# molecule, unit.of.measure, melting point
data = [
    ("CC1CCCN(c2ccc(-c3c4cccc(C(F)(F)F)c4nn3Cc3c(F)cc(F)cc3F)cc2)C1 (stereo not drawn)", "°C", 103),
    ("COC(=O)C[C@H]1CCCN(c2ccc(-c3c4cccc(C(F)(F)F)c4nn3Cc3c(F)cc(F)cc3F)cc2)C1", "°C", 103),
    ("Fc1ccc(-c2c3cccc(C(F)(F)F)c3nn2Cc2c(F)cc(F)cc2F)cc1", "°C", 125),
    ("COC(=O)C[C@@H]1CCCN(c2ccc(-c3c4cccc(C(F)(F)F)c4nn3Cc3c(F)cc(F)cc3F)cc2)C1", "°C", 103),
]

###

Below is a list of entries, each paired with its recorded melting point value.
test.readout: melting point

# compound.string, measurement
data = [
    ("COc1ccc(-c2c3cccc(C(F)(F)F)c3nn2CC2CCCCC2)c(OC)c1", "156 to 157 °C"),
    ("COc1ccc(-c2c3cccc(C(F)(F)F)c3nn2CC(C)C)c(OC)c1", "111 to 112 °C"),
    ("CCC(CC)n1nc2c(C(F)(F)F)cccc2c1-c1ccc(OC)cc1OC", "138 to 139 °C"),
    ("Fc1ccc(-c2c3cccc(N4CCCC4)c3nn2Cc2ccc(F)cc2F)cc1", "112 to 114 °C"),
    ("COc1ccc(-c2c3cccc(C(F)(F)F)c3nn2C2CCC2)c(OC)c1", "51 to 52 °C"),
]
